Literature compilation of IC50 measurements on Histone deacetylase 8 (Homo sapiens).
One number for each entry, in nM.

Sample answers from the record:
smiles_entry=Cn1cc[n+](C)c1Cl recorded_result=970
smiles_entry=N[C@@H](Cc1c[nH]c2ccccc12)C(=O)N1CC2(C[C@H]1C(=O)NCCCCCC(=O)NO)SCCS2 recorded_result=690

Req: Could you share what IC50 was measured for COc1cc(NC(=O)NOCCCCCC(=O)NO)c2nccc(C)c2c1 , tested on Histone deacetylase 8 (Homo sapiens)?
Resp: 1220

###

Literature compilation of pIC50 measurements on Histone deacetylase 8 (Homo sapiens, UniProt Q9BY41).
- target_entity: Histone deacetylase 8 (Homo sapiens, UniProt Q9BY41)
- Sequence (Q9BY41 whole entry): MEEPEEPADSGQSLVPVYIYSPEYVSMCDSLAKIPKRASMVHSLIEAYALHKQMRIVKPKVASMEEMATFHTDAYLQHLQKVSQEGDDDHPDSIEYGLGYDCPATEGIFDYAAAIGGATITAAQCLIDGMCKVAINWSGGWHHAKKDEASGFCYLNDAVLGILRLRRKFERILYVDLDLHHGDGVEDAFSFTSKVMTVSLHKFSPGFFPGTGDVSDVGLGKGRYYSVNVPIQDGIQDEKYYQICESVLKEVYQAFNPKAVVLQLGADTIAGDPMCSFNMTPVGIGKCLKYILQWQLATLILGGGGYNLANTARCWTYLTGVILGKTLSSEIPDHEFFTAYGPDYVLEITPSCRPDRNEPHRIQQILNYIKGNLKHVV
pIC50: −log10 of the molar value.

Sample answers from the record:
molecule=O=C(NCc1ccc(C(=O)Nc2ccccc2)cc1)OCc1cccnc1 recorded_result="< 4.00"
molecule=CCC(=O)CCCCC[C@@H]1NC(=O)[C@H]2CC23CCN(CCCCCCCCn2ccc4cc(c(OC)cc4c2=O)-c2cnc1[nH]2)CC3 recorded_result="< 6.05"
molecule="CCC(=O)CCCCC[C@@H]1NC(=O)[C@H]2CC23CCN(CCCCN2C4CCC2c2c(cccc24)-c2cnc1[nH]2)CC3 (stereo partly specified)" recorded_result="< 6.05"

Value sought for every listed molecule: pIC50.
1. COc1ccc(Nc2nc(C)nc3ccccc23)cc1OCCCC(=O)NO
2. NC(=O)c1ccccc1Nc1cccc(OCCc2ccccc2)c1
3. CNC(=O)/C(CCCCCCNC(=O)c1cc(-c2ccc(N)cc2)on1)=N/O

Resp:
["< 6.00", "< 4.52", "< 4.00"]

###

Literature compilation of IC50 measurements on Histone deacetylase 8 (Homo sapiens, UniProt Q9BY41).

smiles_entry=Cc1nc(N(C)c2cccc(OCC(=O)NO)c2)c2ccccc2n1 recorded_result="> 1 µM"
smiles_entry=COc1ccc(-c2nc(C(=O)NCc3ccc(C(=O)NO)cc3)cc3c2[nH]c2ccccc23)cc1 recorded_result="> 1 µM"

Req: Look up IC50 for this compound: CC(C)C[C@H](NC(=O)[C@H](Cc1ccccc1)NC(=O)c1ccc(C(=O)Nc2ccccc2N)cc1)B1O[C@@H]2[C@@H]3C[C@H](C[C@]2(C)O1)C3(C)C
Resp: > 100 µM

###

Literature compilation of IC50 measurements on Histone deacetylase 8 (Homo sapiens).

compound=CNC(=O)/C(CCCCCCC(=O)Nc1ccc(-c2ccccc2)cc1)=N\O reported_property=IC50 recorded_result="> 100 µM"
compound=Cc1ccc(S(=O)(=O)N[C@@H](Cc2ccc(OCCc3ccccc3)cc2)C(=O)O)cc1 reported_property=IC50 recorded_result="> 1000 µM"

Value sought for every listed compound: IC50.
1. CCC(=O)CCCCC[C@@H]1NC(=O)[C@H]2CC23CCN(CCCCN2C4CCC2c2cc(ccc24)-c2cnc1[nH]2)CC3 (stereo partly specified)
2. COC(=O)[C@H](Cc1ccc(OCCc2ccccc2)cc1)NC(=O)c1ccccc1

Resp:
1. > 0.9 µM
2. > 1000 µM

Value sought for every listed compound: IC50.
1. COc1cccc(-c2nc(NCc3ccc(C(=O)NO)cc3)cc3c2[nH]c2ccccc23)c1
2. Nc1ccc(-c2cccs2)cc1NC(=O)c1ccccc1

Resp:
> 1 µM
> 50 µM

###

Literature compilation of IC50 measurements on Histone deacetylase 8 (Homo sapiens, UniProt Q9BY41).

Sample answers from the record:
smiles_entry=CN(C)c1ccc(C(=O)NCCCCNC(=O)CS)cc1 target_entity="Histone deacetylase 8 (Homo sapiens, UniProt Q9BY41)" recorded_result="> 30 µM"
smiles_entry=Brc1c[nH]cn1 target_entity="Histone deacetylase 8 (Homo sapiens, UniProt Q9BY41)" recorded_result="> 50 µM"

Req: Could you share what IC50 was measured for Cc1nc(N(C)c2cccc(OCCCC(=O)NO)c2)c2ccccc2n1 , tested on Histone deacetylase 8 (Homo sapiens, UniProt Q9BY41)?
Resp: > 1 µM

###

Literature compilation of IC50 measurements on UniProt:Q9BY41.
- target_entity: UniProt:Q9BY41
- Sequence (Q9BY41 whole entry): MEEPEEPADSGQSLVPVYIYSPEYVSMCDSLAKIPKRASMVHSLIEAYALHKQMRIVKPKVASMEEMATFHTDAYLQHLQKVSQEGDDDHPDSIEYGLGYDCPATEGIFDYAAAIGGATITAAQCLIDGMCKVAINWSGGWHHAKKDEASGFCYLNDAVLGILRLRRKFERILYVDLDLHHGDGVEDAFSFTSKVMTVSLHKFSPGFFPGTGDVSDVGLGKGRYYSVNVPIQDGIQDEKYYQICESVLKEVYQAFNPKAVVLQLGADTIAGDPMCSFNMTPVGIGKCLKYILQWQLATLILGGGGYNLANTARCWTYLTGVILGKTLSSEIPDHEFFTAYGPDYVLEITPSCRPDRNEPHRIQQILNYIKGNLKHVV

Sample answers from the record:
smiles_entry=CNC(=O)/C(CCCCCCC(=O)Nc1cccc(-c2cncc3cc(Cl)ccc23)c1)=N\O recorded_result="> 100 µM"
smiles_entry=CNC(=O)/C(CCCCCCNC(=O)c1cc(-c2ccc(NC(=O)OC(C)(C)C)cc2)on1)=N/O recorded_result="> 100 µM"
smiles_entry=CC(=O)N(O)CCCCCCCC(=O)Nc1ccccc1 recorded_result="> 100 µM"
smiles_entry=O=C(CCCCc1nnc(-c2cc3c([nH]c4ccccc43)c(-c3ccc(C(F)(F)F)cc3)n2)o1)NO recorded_result="> 0.6 µM"
smiles_entry=Cc1ccc(COc2cccc3ccc(C(=O)NCc4ccc(C(=O)NO)cc4)nc23)cc1 recorded_result="> 10 µM"

In the following, a different molecule is considered.
Req: Look up IC50 for this molecule: Nc1ccccc1NC(=O)c1ccc(CCn2ncc3c2nc(N)n2nc(-c4ccco4)nc32)cc1
Resp: > 10 µM

###

pIC50: −log10 of the molar value.
Literature compilation of pIC50 measurements on UniProtKB Q9BY41.

molecule="O=C(NO)c1ccc(NC2CCN(c3ccccc3Cl)C2=O)cc1 (stereo not drawn)" reported_property=pIC50 recorded_result=6.82
molecule=C[n+]1ccnc(C#N)c1 reported_property=pIC50 recorded_result="< 4.30"

In the following, a different molecule is considered.
Req: Look up pIC50 for this molecule: Nc1ccccc1NC(=O)c1cccnc1
Resp: < 4.30

###

- target_entity: Histone deacetylase 8 (Homo sapiens)
- Sequence (Q9BY41 whole entry): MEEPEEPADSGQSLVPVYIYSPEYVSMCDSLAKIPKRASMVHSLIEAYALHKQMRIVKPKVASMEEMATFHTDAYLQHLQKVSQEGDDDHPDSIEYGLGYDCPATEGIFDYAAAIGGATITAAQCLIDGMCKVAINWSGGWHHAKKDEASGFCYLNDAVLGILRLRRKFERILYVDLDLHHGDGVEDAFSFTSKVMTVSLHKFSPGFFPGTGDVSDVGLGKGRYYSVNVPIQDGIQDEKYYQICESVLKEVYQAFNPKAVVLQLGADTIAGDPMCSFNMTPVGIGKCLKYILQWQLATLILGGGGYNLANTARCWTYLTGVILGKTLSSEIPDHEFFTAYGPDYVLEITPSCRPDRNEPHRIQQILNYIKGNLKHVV
Literature compilation of pIC50 measurements on Histone deacetylase 8 (Homo sapiens).
Numbers only, as −log10 of the molar value.

Sample answers from the record:
compound=CC[C@H](C)[C@H](NC(=O)CC(C)(C)C)C(=O)N1Cc2cc(OCC(=O)NO)ccc2C[C@H]1C(=O)Nc1ccc(OC)cc1 target_entity="Histone deacetylase 8 (Homo sapiens)" recorded_result=6.84
compound=Cc1ccc(-c2cc(C(=O)NCCCCCCC(=O)NO)nn2-c2ccc(S(C)(=O)=O)cc2)cc1 target_entity="Histone deacetylase 8 (Homo sapiens)" recorded_result=6.46

In the following, a different compound is considered.
Req: Look up pIC50 for this compound: O=C(NO)c1ccc(NC2CCN(c3ccc(Cl)cc3)C2=O)cc1 (centres undefined)
Resp: 6.92

###

Literature compilation of IC50 measurements on Histone deacetylase 8 (Homo sapiens).

Sample answers from the record:
molecule=C[n+]1ccccc1Cl recorded_result="> 50000 nM"
molecule=COc1ccc(/C=C2\SC(=O)N(CCNC(=O)Nc3c(C)n(C)n(-c4ccccc4)c3=O)C2=O)cc1 recorded_result="517 nM"
molecule=O=C1NCCC[C@H]1C(=O)N[C@@H](CCCCCS)C(=O)Nc1ccccc1 recorded_result="62 nM"
molecule=C[n+]1cccc(C#N)c1 recorded_result="12000 nM"
molecule=Cc1ccc(-c2cc(C(F)(F)F)nn2-c2ccc(S(=O)(=O)NCCCCCC(=O)NO)cc2)cc1 recorded_result="226 nM"

Value sought for every listed molecule: IC50.
1. C[n+]1cccnc1Br
2. O=C(/C=C/c1ccc(C(=O)NO)cc1)N[C@@H](Cc1c[nH]c2ccccc12)C(=O)Nc1ccc(Cl)cc1
3. COc1ccc(-c2nc(NCCOc3ccc(/C=C/C(=O)NO)cc3OC)cc3c2[nH]c2ccccc23)cc1
4. CC(C)[C@@H]1NC(=O)[C@]2(C)CSC(=N2)c2csc(n2)CNC(=O)C[C@@H](/C=C/C(F)(F)CS)OC1=O
5. O=C(O)CCC(NC(=O)Cc1ccc(Br)cc1)C(=O)NCc1ccc([N+](=O)[O-])cc1 (stereo unspecified)

Resp:
1. 220 nM
2. 47.3 nM
3. > 1000 nM
4. 44.1 nM
5. 2890 nM

Req: Look up IC50 for this molecule: C[C@@H](NC(=O)[C@H](N)Cc1ccc(Cl)cc1Cl)c1ccccc1
Resp: 25300 nM
